# testedOn: recombinant IRAP (Homo sapiens, UniProt Q9UIQ6)
# Construct: expressed in transfected cells; host or cells: HEK 293T
# Sequence (Q9UIQ6 whole entry): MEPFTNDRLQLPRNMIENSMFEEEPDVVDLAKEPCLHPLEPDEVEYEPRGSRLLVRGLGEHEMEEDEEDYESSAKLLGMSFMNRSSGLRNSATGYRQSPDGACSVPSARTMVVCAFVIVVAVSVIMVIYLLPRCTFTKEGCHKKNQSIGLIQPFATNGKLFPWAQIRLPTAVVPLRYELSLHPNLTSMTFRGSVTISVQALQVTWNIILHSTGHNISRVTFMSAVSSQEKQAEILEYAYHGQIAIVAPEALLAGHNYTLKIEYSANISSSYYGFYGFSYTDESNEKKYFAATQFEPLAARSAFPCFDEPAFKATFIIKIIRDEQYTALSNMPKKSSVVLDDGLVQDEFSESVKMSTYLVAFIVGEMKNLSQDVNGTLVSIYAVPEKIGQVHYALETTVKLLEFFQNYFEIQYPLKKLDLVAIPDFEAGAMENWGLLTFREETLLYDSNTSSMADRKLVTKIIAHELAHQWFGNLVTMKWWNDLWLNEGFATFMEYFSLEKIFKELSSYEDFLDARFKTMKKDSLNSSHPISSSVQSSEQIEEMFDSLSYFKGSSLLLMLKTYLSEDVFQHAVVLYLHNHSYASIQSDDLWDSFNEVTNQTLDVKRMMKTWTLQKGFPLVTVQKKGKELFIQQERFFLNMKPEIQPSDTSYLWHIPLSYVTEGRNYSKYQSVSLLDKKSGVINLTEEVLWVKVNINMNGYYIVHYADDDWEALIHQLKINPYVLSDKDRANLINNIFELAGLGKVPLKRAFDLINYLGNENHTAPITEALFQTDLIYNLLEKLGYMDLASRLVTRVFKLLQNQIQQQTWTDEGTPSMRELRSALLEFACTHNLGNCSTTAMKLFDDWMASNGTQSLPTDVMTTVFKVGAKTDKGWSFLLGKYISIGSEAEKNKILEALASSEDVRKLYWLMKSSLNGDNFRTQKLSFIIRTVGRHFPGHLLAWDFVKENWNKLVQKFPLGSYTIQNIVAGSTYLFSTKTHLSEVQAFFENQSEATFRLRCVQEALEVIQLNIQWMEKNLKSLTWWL
# experimentNotes: IRAP enzymatic assay (hydrolysis of Leu-MCA)
# Format: biochemical
# reportedConditions: Table 2-7; calculated from IC50, substrate Leu-MCA
measure: Ki (µM)
Provide the reading as a plain figure in µM.

**Q:** Entry under review: CCOC(=O)C1=C(C)OC(N)=C(C(=O)OCC)C1c1ccc(C(=O)O)cc1 (stereo not shown) [Compound 17a] . Reported Ki?
**A:** 4.2

----------
# testedOn: recombinant IRAP (Homo sapiens)
# Construct: expressed in transfected cells; host or cells: HEK 293T
# experimentNotes: IRAP enzymatic assay (hydrolysis of Leu-MCA)
# Assay type: biochemical
# reportedConditions: Table 2-7; substrate Leu-MCA; read-out: IC50
measure: pIC50
The value called pIC50 is obtained by taking minus log10 of the concentration in mol/L.

**Q:** // query pIC50 value for entry CCOC(=O)C1=C(C)OC(N)=C(C(=O)OCC)C1c1ccc(C(=O)O)cc1 (stereo not shown) [Compound 17a]
**A:** 5.15

----------
Field: pIC50. Provide a value for each of the compounds that follow.
# testedOn: recombinant IRAP (Homo sapiens, UniProt Q9UIQ6)
# Construct: expressed in transfected cells; host or cells: HEK 293T
# experimentNotes: IRAP enzymatic assay (hydrolysis of Leu-MCA)
# Format: biochemical
# reportedConditions: Table 2-5; substrate Leu-MCA; read-out: IC50
pIC50: −log10 of the molar value.

**Q:** Name the reported pIC50 value associated with the compound CC(=O)C1=C(C)OC(N)=C(C#N)C1c1cccc(C(=O)O)c1 (stereo not drawn) [Compound 15b]
**A:** 5.15 to 5.22

**Q:** # get_value(readout='pIC50', item= CC(=O)C1=C(C)OC(N)=C(C#N)C1c1ccc2nccnc2c1 (stereo not drawn) [Compound 15j] )
**A:** < 4.00

**Q:** What value of measured pIC50 is listed for CC(=O)C1=C(C)OC(N)=C(C#N)C1c1ccc(C(=O)O)cc1 (stereo not drawn) [Compound 15a] ?
**A:** 5.40 to 5.70

----------
What pIC50 was measured for each of the following?
# testedOn: recombinant IRAP (Homo sapiens, UniProt Q9UIQ6)
# Construct: expressed in transfected cells; host or cells: HEK 293T
# experimentNotes: IRAP enzymatic assay (hydrolysis of Leu-MCA)
# Type: biochemical
# reportedConditions: Table 2-1; substrate Leu-MCA; read-out: IC50
pIC50: −log10 of the molar value.

**Q:** pIC50 for CCOC(=O)C1=C(C)OC(N)=C(C#N)C1c1cc(OC)c2c(c1)OCO2 (centres unmarked) [Compound 11h] ?
**A:** 4.20

**Q:** # lookup: pIC50 of CCOC(=O)C1=C(C)OC(N)=C(C#N)C1c1ccc(OC)c(OC)c1 (centres unmarked) [Compound 11i]
**A:** < 4.30

**Q:** Tell me the measured pIC50 of CCOC(=O)C1=C(C)OC(N)=C(C#N)C1c1ccc(C#N)cc1 (centres unmarked) [Compound 11j] , please.
**A:** < 4.00

**Q:** Can you look up the measured pIC50 of CCOC(=O)C1=C(C)OC(N)=C(C#N)C1c1cc(Br)c(O)c(OC)c1 (centres unmarked) [Compound 11a] for me?
**A:** 4.64

**Q:** Query (compound): CCOC(=O)C1=C(C)OC(N)=C(C#N)C1c1ccc(OC(C)=O)c(C)c1 (centres unmarked) [Compound 11n] ; field requested: pIC50
**A:** < 4.00

**Q:** Requested field: pIC50. Item: CCOC(=O)C1=C(C)OC(N)=C(C#N)C1c1ccc(O)cc1 (centres unmarked) [Compound 11e]
**A:** 3.99

**Q:** Field request: pIC50 | item: CCOC(=O)C1=C(C)OC(N)=C(C#N)C1c1ccc2c(c1)OCO2 (centres unmarked) [Compound 11g]
**A:** < 4.30

**Q:** Consider the compound shown here: CCOC(=O)C1=C(C)OC(N)=C(C#N)C1c1ccncc1 (centres unmarked) [Compound 11r] What is its recorded pIC50?
**A:** < 4.00

**Q:** Endpoint output: pIC50 of CCOC(=O)C1=C(C)OC(N)=C(C#N)C1c1cnc2ccccc2c1 (centres unmarked) [Compound 11t] . Value?
**A:** < 4.00

**Q:** Look up pIC50 for this compound: CCOC(=O)C1=C(C)OC(N)=C(C#N)C1c1ccc2ccccc2n1 (centres unmarked) [Compound 11s]
**A:** 4.40 to 5.52

**Q:** Which pIC50 reading was recorded for the compound CCOC(=O)C1=C(C)OC(N)=C(C#N)C1c1ccc([N+](=O)[O-])cc1 (centres unmarked) [Compound 11l] ?
**A:** < 4.00
